Numbers sourced from ChEMBL document CHEMBL3988442.

tested on: Wolbachia pipientis; test: Anti-Wolbachia Cell-Based Screen; type: functional; parameters: scale not given: in the data most compounds retested in dose-response had high values; settings: 5 µM
Among all 48,000 compounds or so, about 13,000 (27%) showed an effect of 50% or more. The list shows a part of the results.
Measure Name: Percent Effect (%)
Numeric only. Scale: %

State its Percent Effect for this molecule: CCOCC1CN(C(=O)COc2ccccc2C)Cc2ncn(C)c21.O=C(O)C(F)(F)F (stereo not given)
-10.67

Kindly indicate its recorded Percent Effect. Item: CN(C)C(=O)COCC1CN(S(C)(=O)=O)Cc2ncn(C)c21.O=C(O)C(F)(F)F (stereo not given)
94.11

Provide Percent Effect value for the following molecule: CN(C)C(=O)COCC1CN(C2CCC2)Cc2ncn(C)c21.O=C(O)C(F)(F)F.O=C(O)C(F)(F)F (stereo not given)
85.57

Please report the measured Percent Effect for O=C1CNc2ncnc(Nc3cnn(Cc4ccccc4F)c3)c2N1
112.6

Provide Percent Effect value for the following molecule: O=C1CC(NCc2ccncc2)CN1Cc1cccc(F)c1 (stereo not given)
-21.37

Provide one value: measured Percent Effect of O=C1CNc2ncnc(Nc3cnn(Cc4ccc(F)cc4)c3)c2N1
101.7

Tell me Percent Effect reported for O=C(NCCCOc1cccnc1)c1cn(Cc2ccccc2F)nn1
-6.028

Indicate the recorded Percent Effect value for this molecule: c1ccc(Cn2cc(CNCC3CCCN3c3cccnn3)cn2)cc1 (stereo not given)
20.91

Name the recorded Percent Effect of the item Cn1cnc2c1C(COCC1CCOCC1)CN(C(=O)C1CC=CC1)C2.O=C(O)C(F)(F)F (stereo not given) in your answer.
-7.237

Determine its reported Percent Effect: COCC1CN(C(=O)COc2ccccc2)Cc2ncn(C)c21.O=C(O)C(F)(F)F (stereo not given)
-7.331
